Source of measurements: PubChem BioAssay (NCI)

Test system: IGROV1 ovarian
Assay: NCI tumour cell line growth inhibition, 48 h
property.name: TGI

As a guide, the following entries are already answered.
molecule	test.system	TGI
COc1ccc(-c2n[nH]c3nc4ccccc4n3c2=O)cc1	IGROV1 ovarian	> 100 µM
CCC1=NC(N/N=C/c2ccco2)=N/C1=C\c1ccco1	IGROV1 ovarian	> 100 µM
CC1=C(c2ccccc2)CON(c2ccccc2)C1	IGROV1 ovarian	> 100 µM
Nc1ccc(Cc2ccc(N)c(C(=O)O)c2)cc1C(=O)O	IGROV1 ovarian	> 100 µM
C/C=C/C(O)P(=O)(OC)OC (centres undefined)	IGROV1 ovarian	1.01 µM

Incoming: Data request, read-out TGI, for CCSc1nnc(-c2ccc3ccccc3c2O)n1-c1ccccc1
Outgoing: > 100 µM

Incoming: Same question for C=CCC(O)c1cc(OC)ccc1OC (centres undefined) please.
Outgoing: > 100 µM

Incoming: Same question for CC(C)(C)CC(C)(C)c1cc2c(O)c(c1)Cc1cc(C(C)(C)CC(C)(C)C)cc(c1O)Cc1cc(C(C)(C)CC(C)(C)C)cc(c1O)Cc1cc(C(C)(C)CC(C)(C)C)cc(c1O)Cc1cc(C(C)(C)CC(C)(C)C)cc(c1O)Cc1cc(C(C)(C)CC(C)(C)C)cc(c1O)Cc1cc(C(C)(C)CC(C)(C)C)cc(c1O)Cc1cc(C(C)(C)CC(C)(C)C)cc(c1O)C2 please.
Outgoing: > 100 µM

Incoming: Same question for O=C1c2ccccc2C(=O)c2c1sc1nc3ccccc3n21 please.
Outgoing: 6.34 µM
